# Test system: HOP-62 NSCLC
# Experimental details: NCI tumour cell line growth inhibition, 48 h
Property measured: TGI

Some solved entries appear below for comparison.
Compound: CCOc1c(Br)cc(Br)cc1C=C(C#N)C#N
Test value: > 10 µM

Compound: CC(C)(C)C[C@H]1N[C@@H](C(=O)NC2CCC(O)CC2)[C@H](c2cccc(Cl)c2F)[C@@]12C(=O)Nc1cc(Cl)ccc12 (stereo not given in full)
Test value: 27.7 µM

Compound: COc1cc2c(cc1OC)C(=O)N(c1ccc(OCCN3CCCC3)cc1)C2
Test value: > 100 µM

Compound: COC(=O)c1c2c(cc3c1CC1(Cc4cc5c(c(C=O)c4C1)CCC5)C3)CCC2 (stereo not given)
Test value: > 100 µM

Compound: CCOC(=O)c1cc(-c2ccc(OC)cc2)c([N+](=O)[O-])[nH]1
Test value: > 10 µM

Compound: O=S(=O)(NC1=NCCN1C(=S)SN1CCn2c1nsc2=S)c1ccc(Cl)cc1
Test value: 41 µM

Query: Please report the recorded TGI for Cn1c(COC(=O)NCCc2ccccn2)nc2c(N3CCOCC3)nc(Cl)nc21 .
Result: 4.88 µM

Query: Moving on to the next compound: O=C(O)CSC(CC(=O)c1ccc(Cl)cc1)c1ccc(Cl)cc1 (stereo not given)
Result: 97.1 µM

Query: Moving on to the next compound: O=c1[nH]c(C2CCCN2)nc2c1oc1ccc(Cl)cc12 (stereo not given)
Result: > 100 µM

Query: Moving on to the next compound: COc1cc(/C=N/NC(=O)c2cnn3c2NC(c2ccccc2)C3)ccc1OC1CCCC1 (stereo not given)
Result: 6.47 µM
